- Method: A CellTox Green Cytotoxicity Assay to monitor cytotoxicity in HEK293 cells - 40 hour (AID 1224871); further: nearly all actives have a fitted effect of over 45% in size
- Test parameters: CellTox Green fluorescence; series mostly up to 76.8 µM
Results filed as inconclusive are left out. Calls of active or inactive are those of the source. The call rests on the fitted dose curve; in most records, active means well fitted activation curve with a large enough effect in the repeat runs; inconclusive means weak or mixed curves; inactive means flat fitted curve, though single readings scatter.
Assay endpoint: outcome

# Compound, outcome
records = [
    ("CCCCCCCCCCCCCCCl", "inactive"),
    ("CC(C)c1ccc(OP(=O)(Oc2ccc(C(C)C)cc2)Oc2ccc(C(C)C)cc2)cc1", "inactive"),
    ("COCc1cnc(C2=NC(C)(C(C)C)C(=O)N2)c(C(=O)O)c1 (stereo unspecified)", "inactive"),
    ("CCOC(C(=O)OCCN(C)C)(c1ccccc1)c1ccccc1", "inactive"),
    ("C=C(C)C(=O)OCCCCOC(=O)C(=C)C", "inactive"),
]

Task item: Can you look up the measured outcome of CC(C)c1ccc(NC(=O)N(C)C)cc1 for me?
Reply: inactive

###

- Method: qHTS assay to identify small molecule agonists of the sonic hedgehog signaling (Shh) pathway - cell viability counter screen (AID 1259366); further: nearly all actives have a fitted effect of over 50% in size
- Test parameters: NIH/3T3 Gli1-Luc viability, CellTiter-Fluor, 24 h; series mostly up to 92.4 µM
Records with an inconclusive call do not appear. Active and inactive are the calls of the source. The call rests on the fitted dose curve; in most records, active means well fitted cell-killing curve with a large enough effect in the repeat runs; inconclusive means weak or mixed curves, or effect the other way; inactive means flat fitted curve, though single readings scatter.
A correct response names exactly one class from True (active), False (inactive)

# Molecule, Class name
rows = [
    ("COc1ccc(C(O)(c2cncnc2)C2CC2)cc1 (stereo not drawn)", "False"),
    ("O=C(O)c1ccc(=O)[nH]c1", "False"),
    ("CCOc1cccc(C2(N3CCN(c4ccccc4)CC3)CCC(C)CC2)c1 (stereo not drawn)", "False"),
]

Task item: Answer briefly: the call reported for CC(C)(C)NCC(O)c1ccccc1Cl (stereo not drawn) in this assay.
Reply: False

Task item: Next record, please: Nc1ccc2c(c1)Cc1ccccc1-2
Reply: False

Task item: Also check CCCCC1C(=O)NC(=O)N(C2CCCCC2)C1=O (stereo not drawn)
Reply: False

Task item: Do the same for CCCBr please
Reply: False

Task item: Another: C#C[C@]1(O)CC[C@H]2[C@@H]3CCC4=CC(=O)CCC4=C3C=C[C@@]21CC
Reply: False

Task item: Can you handle Nc1ccccc1C(=O)OCC(O)CO (stereo not drawn) next?
Reply: False

Task item: Also, CCOC(=O)C1OC1(C)c1ccccc1 (stereo not drawn) please.
Reply: False

Task item: Same lookup for CN(C)C(=O)Nc1cccc(OC(=O)NC(C)(C)C)c1 , please.
Reply: False

Task item: What about c1ccc2c(c1)sc1ccccc12 ?
Reply: False

Task item: Cool, now CCCN(CCC)c1c([N+](=O)[O-])cc(C(C)C)cc1[N+](=O)[O-]
Reply: False

Task item: Another molecule to look at: C=CCc1ccccc1O
Reply: False

Task item: Then this molecule: CCc1cnc(C2=NC(C)(C(C)C)C(=O)N2)c(C(=O)O)c1 (stereo not drawn)
Reply: False

Task item: Now give it for CC(C)c1ccc(NC(=O)N(C)C)cc1 too.
Reply: False

Task item: // query: N#CC1(N=NC2(C#N)CCCCC2)CCCCC1
Reply: False

###

- Method: qHTS assay to identify small molecule antagonists of the estrogen related receptor (ERR) signaling pathway from Tox21 library - cell viability counter screen (AID 1224834); further: nearly all actives have a fitted effect of over 30% in size; further: potency means the concentration at half of the fitted maximal effect
- Test parameters: ERR reporter cells viability, CellTiter-Fluor, 17.5 h; series mostly up to 92.4 µM
Records with an inconclusive call do not appear. Active and inactive are the calls of the source. Calls come from the whole dose curve; as a rule, active = well fitted cell-killing curve with a large enough effect in the repeat runs; inconclusive = weak or mixed curves; inactive = flat fitted curve, though single readings scatter.
Assay endpoint: Potency

# Compound, Observed
rows = [
    ("C[C@]12CC[C@H]3[C@@H](CCC4=CC(=O)CC[C@@H]43)[C@@H]1CC[C@@H]2OC(=O)CCc1ccccc1", "inactive"),
    ("C#C[C@]1(O)CC[C@H]2[C@@H]3CCC4=CC(=O)CCC4=C3C=C[C@@]21CC", "21.1 µM (active)"),
    ("C=CCc1ccccc1O", "inactive"),
    ("CCOP(=S)(S)OCC", "inactive"),
    ("CCc1cnc(C2=NC(C)(C(C)C)C(=O)N2)c(C(=O)O)c1 (stereo not drawn)", "inactive"),
]

Task item: Please give the measured Potency for this compound: CCC1(CC)C(=O)NC(=O)NC1=O
Reply: inactive

Task item: Same for CC(Cc1ccccc1)NCc1ccccc1Cl (stereo not drawn)
Reply: inactive

Task item: Please answer likewise for O=S(=O)(c1ccccc1)c1ccccc1
Reply: inactive

Task item: Also check C=C(Cl)Cl
Reply: inactive

Task item: Same for N#CC(C#N)=Cc1ccc(O)c(O)c1
Reply: inactive

Task item: Proceed to O=C(Cc1ccccc1)OCCc1ccccc1
Reply: inactive

Task item: COc1ccc2c(c1OC)C(=O)O[C@H]2[C@@H]1c2cc3c(cc2CCN1C)OCO3 ?
Reply: 6.68 µM (active)

Task item: And CN1C(=O)CN=C(c2ccccc2)c2cc([N+](=O)[O-])ccc21 ?
Reply: inactive

###

- Method: qHTS assay for small molecule disruptors of the mitochondrial membrane potential (AID 720635)
- Test parameters: HepG2 mitochondrial membrane potential, Mito-MPS dye ratio; series mostly up to 83.2 µM
Results filed as inconclusive are left out. Activity calls are given as the source filed them. The call rests on the fitted dose curve; in most records, active means well fitted inhibition curve with a large enough effect in the signal ratio in the repeat runs; inconclusive means weak or mixed curves, or effect the other way; inactive means flat fitted curve, though single readings scatter; the % refers to the signal ratio.
# valid calls are active, inactive; nothing else

# Molecule, Class name
rows = [
    ("C[N+](C)(C)CCOC(=O)C(O)(c1ccccc1)c1ccccc1", "inactive"),
    ("N#CC(C#N)=Cc1ccc(O)c(O)c1", "active"),
    ("C=CCN1C[C@H](C)N([C@H](c2ccc(C(=O)N(CC)CC)cc2)c2cccc(OC)c2)C[C@H]1C", "inactive"),
    ("CCC[N+](CCC)(CCC)CCC", "inactive"),
    ("Nc1c(Br)cc(Br)c2c1C(=O)c1ccccc1C2=O", "active"),
]

Shifting focus to the molecule that follows.
Task item: Just curious, what result did Clc1ccccc1 get here?
Reply: inactive

###

- Method: qHTS assay to identify small molecule agonists of the endoplasmic reticulum stress response signaling pathway - cell viability counter screen (AID 1159517); further: nearly all actives have a fitted effect of over 50% in size
- Test parameters: ESRE-bla HeLa viability, CellTiter-Glo luminescence, 5 h; series mostly up to 61 µM
Results filed as inconclusive are left out. The source made the active and inactive calls. The call rests on the fitted dose curve.
The categories you may choose from are active, inactive

Example entries and their recorded answers appear below.
# Compound, Class name
data = [
    ("O=C(O)c1ccc(=O)[nH]c1", "inactive"),
    ("CCCCC#N", "inactive"),
]

Task item: In this assay, the call recorded for COC(=O)C1(O)c2ccccc2-c2ccccc21 was what?
Reply: inactive

Task item: Also need O=C(O)C(F)(F)C(F)(F)C(F)(F)C(F)(F)C(F)(F)F , thanks.
Reply: inactive

Task item: Repeat for the following compound: Nc1ccccc1C(=O)OCC(O)CO (stereo not given)
Reply: inactive

Task item: Can you check O=C(CCl)CCl next?
Reply: active

Task item: And COC1CC(=C(c2cccs2)c2cccs2)C[N+](C)(C)C1 (stereo not given) ?
Reply: inactive

Task item: Try this compound too: C=CCSSCC=C
Reply: inactive

Task item: Repeat with CCCC(C)(COC(N)=O)COC(=O)NC(C)C (stereo not given)
Reply: inactive

Task item: How about this compound: NC(=S)c1c(Cl)cccc1Cl
Reply: inactive

Task item: Same question, O=C(Cc1ccccc1)c1ccccc1 this time
Reply: inactive

Task item: # iterate: c1ccc2c(c1)-c1cccc3cccc-2c13
Reply: inactive

Task item: CC1(C)[C@H](C(=O)O[C@H](C#N)c2cccc(Oc3ccccc3)c2)[C@@H]1C=C(Br)Br ?
Reply: inactive

Task item: Try this compound too: C[N+]1(CCF)[C@@H]2CC[C@H]1CC(OC(=O)C(O)(c1ccccc1)c1ccccc1)C2 (stereo not given in full)
Reply: inactive

Task item: What do we get for O=[N+]([O-])/C=C/c1ccccc1 ?
Reply: inactive

Task item: Likewise for Cc1nc2ccccc2c(=O)n1-c1ccccc1Cl ?
Reply: inactive

Task item: Also Cc1cccc(C)c1NC1=NCCCS1 , if possible.
Reply: inactive

Task item: Then what about the compound CCOP(=O)(O)C(N)=O ?
Reply: inactive

Task item: How about Nc1ccc2c(c1)Cc1ccccc1-2 ?
Reply: inactive

###

- Method: qHTS assay to identify small molecule agonists of the farnesoid-X-receptor (FXR) signaling pathway - cell viability counter screen (AID 743218); further: nearly all actives have a fitted effect of over 45% in size
- Test parameters: FXR-bla HEK293T viability, CellTiter-Glo luminescence, 16 h; series mostly up to 62.6 µM
Inconclusive results are not listed. Active and inactive are the calls of the source. Calls follow the shape of the dose curve; as a rule, active = well fitted cell-killing curve with a large enough effect in the repeat runs; inconclusive = weak or mixed curves, or effect the other way; inactive = no such curve, though single readings can be large or run the other way.
Outcome (select one): active, inactive

Examples with answers:
# Molecule, Class name
data = [
    ("Cc1cccc(C)c1NC1=NCCCS1", "inactive"),
    ("C=CCOCC1CO1 (centres undefined)", "inactive"),
    ("Cc1ncc(C[n+]2csc(CCO)c2C)c(N)n1", "inactive"),
    ("CN1C[C@H](C(=O)N[C@]2(C)O[C@@]3(O)[C@@H]4CCCN4C(=O)[C@H](Cc4ccccc4)N3C2=O)C=C2c3cccc4[nH]cc(c34)C[C@H]21", "inactive"),
    ("Cc1ccc2c(C)cccc2c1", "inactive"),
    ("COCc1cnc(C2=NC(C)(C(C)C)C(=O)N2)c(C(=O)O)c1 (centres undefined)", "inactive"),
    ("O=C1c2ccccc2C(=O)N1SC(Cl)(Cl)Cl", "active"),
    ("CCCCCBr", "inactive"),
    ("CC(C)CCON=O", "inactive"),
    ("C=CCN1C[C@H](C)N([C@H](c2ccc(C(=O)N(CC)CC)cc2)c2cccc(OC)c2)C[C@H]1C", "inactive"),
]

Task item: So what was the verdict on CC(=O)OC(c1ccccc1)C(Cl)(Cl)Cl (centres undefined) in this test?
Reply: inactive

Task item: Also check Nc1ccccc1C(=O)OCCc1ccccc1
Reply: inactive

Task item: Thanks! And O=C(N/N=C/c1ccc([N+](=O)[O-])o1)c1cc([N+](=O)[O-])cc([N+](=O)[O-])c1O ?
Reply: inactive

Task item: Next molecule: CC(C)(c1ccccc1)c1cc(-n2nc3ccccc3n2)c(O)c(C(C)(C)c2ccccc2)c1
Reply: inactive

Task item: And CCCSP(=S)(OCC)Oc1ccc(SC)cc1 (centres undefined) ?
Reply: inactive

Task item: # repeat for O=C(O)C(Cl)(Cl)Br
Reply: inactive

Task item: Moving on to Cc1nc(N(C)C)nc(OC(=O)N(C)C)c1C
Reply: inactive

Task item: Okay, and Clc1ccccc1 ?
Reply: inactive

Task item: Next molecule up: C[C@H]1O[C@H](OC2[C@@H](O)[C@@H](O)C(O)[C@H](O)[C@H]2O)[C@@H](N)C[C@@H]1N=C(N)C(=O)O (some centres undefined)
Reply: inactive

Task item: Also need CC(C)(C)N(NC(=O)c1ccc(Cl)cc1)C(=O)c1ccccc1 , thanks.
Reply: inactive

Task item: What do you get for CNC(=O)Oc1cccc(N=CN(C)C)c1 ?
Reply: inactive

Data credit: PubChem BioAssay (Tox21)
